Data origin, for the record: patent US20160200813A1

# Target desc: Mouse LRP-8 expressed on HEK293 cells (mouse) (UniProt Q924X6)
# Protocol text: cell-based binding assay, mLRP8
Value kind: EC50 (nM)
Use nM as the unit, but write only the number.

{"Binder": "anti-LRP-8 BGK-7F7 chimeric antibody (CL-105960) (antibody, V domains shown) VH: QVTLKESGPGILQPSQTLSLTCTFSGFSLSTYGLGVGWIRQPSGKGLEWLANIWWDDAKYYNPSLKNRLTISKDTSNNQAFLKIPNVDTADTARYYCARTTKPYYFDYWGQGVMVTVSS VL: HFVLAQPNSVSTNLGSTVKLSCKRSTANIGSNYVNWYQQHEGRSPTTLIYRDDRRPDGVPDRFSGSIDRSSNSALLTINNVQTEDEADYFCQSYSSGINIFGGGTKLTVL", "Unit of measurement": "nM", "EC50": 3.92}

Now for a further binder.
Entry anti-LRP-8 BGK-6B5-2 chimeric antibody (CL-105969) (antibody, V domains shown) VH: QVSLQESGPGILQPSQTLSLTCTFSGFSLSTFGMGVGWIRQPSGKGLEWLANIWWDDDKYYNPSLKNRLTISKDTSNNQAFLKITNVDTADTATYYCARTAKPYYFDYWGHGVMVTVSS VL: HFVLAQPNSVSTNLGNTVKLSCKRSTGNIGSNYVNWYQQHEGRSPTTLIYRDDKRPDGVPDRFSGSFDRSSNSALLTINNVQTEDEADYFCQSYNSGINFFGGGTKLTVL has what EC50?
41.8
